assay: in vitro; conditions: human, hela cells, % viability
Recorded endpoint: viability at 28.5 h, 10 µM (%)

* COc1ccc(CCN(CCN2CCOCC2)C(=O)NCc2ccc3c(c2)OCO3)cc1OC | 93.3
* O=c1oc(-c2ccoc2)nn1Cc1ccccc1F | 98.5
* CCC(=O)N1CCCCC1c1nn(C)cc1-c1onc(C)c1C (centres unmarked) | 80.5
* O=C(OCc1ccccc1)N1CCC(c2nc3ccc(Br)cc3[nH]2)CC1 | 93.7
* Cc1nn(-c2ccccc2)c2[nH]c(=O)c(CNC3CCC3)cc12 | 103
* CCN(CC)C(=O)c1[nH]c2ccccc2c1NS(=O)(=O)c1ccc(F)cc1 | 94.1
* CC(=O)Nc1ccc(S(=O)(=O)Nc2c(C(=O)N3CCN(C)CC3)[nH]c3ccccc23)cc1 | 94.9
* NC(=O)c1ccc(NC(=O)COc2ccccc2Cl)cc1 | 109
* COC(=O)Cn1cnc2sc(C(=O)Nc3ccccc3OC)c(C)c2c1=O | 109
* O=C(Cn1c([C@H]2CCCO2)cc2cccnc21)NC1CC1 | 94.8
* COc1ccc(Nc2cc(-c3cccc(NC(C)=O)c3)ncn2)cn1 | 95.1
* Cn1nc(CO)c2c1CCN(CC(=O)Nc1nc(C(C)(C)C)cs1)C2 | 85.7
* Cc1noc(C)c1C(=O)N(C)CC(=O)Nc1ccc(Cl)c(C(F)(F)F)c1 | 95.7
* C#CCNC(=O)c1nn(-c2nc3ccccc3s2)c2ccccc12 | 99.2
* c1ccc(CN2CCC3(CC2)CNCc2ccccc2O3)cc1 | 88.4
* COc1ccc(-c2cc(C(=O)Nc3ccc(F)c(Cl)c3)cnc2-c2cccc(C)c2)cc1 | 93.3
* c1ccc(Nc2cncc(N3CCNCC3)n2)cc1 | 100
* CCN(CC)CCNC(=O)c1cc(=O)c2ccccc2o1 | 114
* CCc1ccc(C2=CC(c3cccc(C)c3)n3nnnc3N2)cc1 (centres unmarked) | 88.6
* CCC1CCCCN1C(=O)c1cccc(C)n1 (centres unmarked) | 92.4

----------
assay: in vitro; details: human, hela cells, % viability
Recorded endpoint: viability at 28.5 h, 10 µM (%)

• Cc1ccc([N+](=O)[O-])cc1NC(=O)CSC1=NCCS1 [CBK267489] = 88.6
• OCCCc1nc2ccccc2n1CCOc1ccccc1 [CBK297728] = 97.8
• Cc1csc2c(C3CCCN(C(=O)c4cccnc4)C3)nc(C)n12 (centres unmarked) [CBK283329] = 93.4
• Cc1ccc(NC(=O)CN2C(=O)S/C(=C\c3cc(C)n(-c4cccc(C(=O)O)c4)c3C)C2=O)cc1 [CBK264725] = 89.9
• COc1cc2c(c(OC)c1OC)CC(=O)NC21CCN(C(=O)CC(C)CC(=O)O)CC1 (centres unmarked) [CBK047265] = 94.8
• Cc1ccc(NC(=O)c2ccc(-c3cccc([N+](=O)[O-])c3)o2)cc1-c1nc2ncccc2o1 [CBK262947] = 89.7
• COC(=O)CCc1ccc(S(=O)(=O)N2CCCN(Cc3c(-c4ccccc4)noc3C)CC2)cc1 [CBK063011] = 97.3
• Cc1ccc(S(=O)(=O)NCC(=O)O)c2nsnc12 [CBK261140] = 93.1
• CCN(Cc1ccccc1)C(=O)Nc1ccc(C)cc1 [CBK155248] = 99.1
• COc1ccc(C(C)c2cc3c(cc2OCC(=O)O)OCO3)cc1 (centres unmarked) [CBK200108] = 87.4
• CC(=O)n1cc(C2C(=O)NN=C2C)c2ccccc21 (centres unmarked) [CBK083563] = 102
• Cc1nn(C)cc1CN(C)S(=O)(=O)c1cccc([N+](=O)[O-])c1 [CBK265399] = 79.9
• Cc1cc(C)n(-c2ccnc(NCc3cccnc3)n2)n1 [CBK288614] = 109
• Cc1ccc(OCC(=O)Nc2cccc(C(=O)O)c2)cc1 [CBK287023] = 110
• CN(C)c1ccc(-c2ccnc3nc(N)ccc23)cc1 [CBK067640] = 85.8
• COc1ccc(CCNC(=O)N2CCC(C(=O)O)CC2)cc1 [CBK156073] = 75.6
• CN(C)c1nc(N(C)CC2(CO)CCOCC2)ncc1F [CBK307091] = 110
• N#Cc1ccc(-c2cnc(N)c(-c3ccc(C(=O)N4CCOCC4)cc3)n2)cc1 [CBK064067T] = 116
• N=C1OC2CSCC2N1C(=O)C1(c2ccccc2)CC1 (centres unmarked) [CBK284524] = 106
• Cc1ccc(F)c(OC2(C(=O)O)CCN(Cc3cccc(C)n3)CC2)c1 [CBK306541] = 98.8

----------
compounds and their reported viability at 28.5 h, 10 µM
test: in vitro; details: human, hela cells, % viability
Recorded endpoint: viability at 28.5 h, 10 µM

* CC(C)CC(NC(=O)c1ccco1)c1nc2cccnc2n1C (centres unmarked) | 88.8%
* CN(C)C(=O)c1ccc(-c2ncc(OCc3cccs3)nc2N)cc1 | 102%
* Cc1ccc(-c2cc(C(=O)NCCCn3ccnc3)no2)cc1 | 102%
* CC1(C)Cc2nc3nc(SCC(=O)c4ccc(Br)cc4)n(-c4ccccc4)c(=O)c3cc2CO1 | 91%
* Cc1nc2ccccc2nc1COC(=O)c1ccc(S(=O)(=O)N2CCCCC2C)cc1 (centres unmarked) | 90.7%

----------
assay: in vitro; settings: human, hela cells, % viability
compounds and their reported viability at 28.5 h, 10 µM
Recorded endpoint: viability at 28.5 h, 10 µM (%)

• Cc1ccc(Cl)cc1NC(=O)OCCN(C)C = 98.3
• O=C(O)c1cccc(N2C(=O)C3C4C=CC(C3C2=O)C2C(=O)N(c3cccc(C(=O)O)c3)C(=O)C42)c1 (centres unmarked) = 110
• Cc1c(C(C)NCC(C)(C)N(C)C)cnn1-c1ccc(C#N)cc1 (centres unmarked) = 87.7
• Cc1cn([C@H]2C[C@@H](O)[C@@H](CO)O2)c(=O)nc1-n1cncn1 = 82.9
• COc1ccc2c(c1)C=C(/C=C/C1=CCN(C)CC1)CO2 = 81.1

----------
experiment: in vitro; details: human, hela cells, % viability
Recorded endpoint: viability at 28.5 h, 10 µM (%)

* Cc1ccc(CC(=O)Nc2nc(Cc3n[nH]c(=S)n3C)cs2)cc1 | 90.5
* CCc1[nH]nc(O)c1Cc1c(Cl)cccc1Cl | 115
* CS(=O)(=O)NC1CCCCC1 | 89.3
* O=C(OCc1cc2ccccc2cn1)N1CCOCC1 | 102
* O=C(Nc1ccc2nc3n(c(=O)c2c1)CCCC3)C1CCCCC1 | 91.9
* Nc1ncnc2c1ccn2[C@H]1C[C@@H](O)[C@@H](CO)O1 | 95.5
* COC(=O)CSc1nnc(-c2cc(Cl)ccc2OC)[nH]1 | 97
* O=C1OCCN1CCN1CCCN(Cc2ccc(F)cc2)CC1 | 103
* O=c1cc(N2CCCCC2)cnn1CCCn1cccn1 | 90.1
* CC(=O)Nc1ccc(N2C(=O)CSC23C(=O)Nc2ccccc23)cc1 (centres unmarked) | 91.7
* Cc1cc(C)cc(Oc2coc3c(CN4CCOCC4)c(O)ccc3c2=O)c1 | 89.7
* Cc1noc(/C=C\c2cc(C)n(-c3ccc(C(=O)O)cc3)c2C)c1[N+](=O)[O-] | 98.8
* O=C(NCCN1CCCCC1)C1CC(=O)N(CCc2ccccc2)C1 (centres unmarked) | 91.7
* Cc1nc(-c2ccccc2)cc([C@H]2CN3CC[C@H]2C[C@@H]3CNC(=O)NC(C)C)n1 | 89.9
* COC(=O)C(CC(C)C)Nc1nc(OC)cc(OC)n1 (centres unmarked) | 121
* CCc1nc(N)nc(N2CCCC3(CN(C)C(=O)O3)C2)c1C (centres unmarked) | 86.9
* COc1ccc(CCNC(=O)N(CCC#N)C2CCCCC2)cc1 | 100
* CS(=O)(=O)c1ccc(-c2ccc3c(c2)OCCN(C2CCN(C(=O)CC(F)(F)F)CC2)C3)cc1 | 90.8
* COC(=O)CCNc1nc(-c2ccc(Br)cc2)nc2ccccc12 | 97.9
* Cc1c2cn[nH]c(=O)c2c(C)n1-c1ccccc1 | 98.3
* CCN(CC)C(=O)C1CCCN(C(=O)Nc2ccc(N(CC)CC)cc2)C1 (centres unmarked) | 94.4
* COc1ccc(Nc2nc(-c3cccc(N)c3)cnc2N)cc1 | 95.9
* CCn1c(C)nc2cc(S(N)(=O)=O)ccc21 | 92.1
* CC(=O)Nc1ccc(-c2nnc(SCc3c(Cl)cccc3[N+](=O)[O-])n2C)cc1 | 89.1
* O=C(COc1ccc(S(=O)(=O)N2CCCCC2)cc1)N1CCC(Cc2ccccc2)CC1 | 108
* CC(=O)c1cccc(NC(=O)C2CCCN(S(=O)(=O)c3ccc(Cl)cc3)C2)c1 (centres unmarked) | 102
* CCOc1ccc2c(c1)N1C(=O)NC(C(F)(F)F)(C(F)(F)F)N=C1S2 | 85.4
* O=C(Cc1cccs1)Nc1cccc(C(=O)Nc2cccc(C(=O)O)c2)c1 | 105
* CCCC(=O)Nc1cccnc1N1CCNCC1 [CBK004732T] | 94
* Nn1cnn2c(SCC(=O)c3ccccc3)nnc12 | 99.8
* Cc1ccc2oc(-c3cc(NC(=S)NC(=O)c4ccc([N+](=O)[O-])cc4)ccc3O)nc2c1 | 94.3
* CC(C)(C)OC(=O)n1cccc1-c1cncc(-c2ccc(C(=O)N3CCOCC3)cc2)n1 | 100
* c1ccc(N2CCN(C3CCN(Cc4ccccn4)CC3)CC2)cc1 [CBK264684G] | 110
* O=S(=O)(NCc1ccc(C(F)(F)F)c(F)c1)c1cccc2nsnc12 | 94.3
* COc1ccc(C(=O)Nc2nc3ccc(NC(C)=O)cc3s2)cc1OC | 101
* C=CCN1C(=O)CC2(C1=O)C(=O)N(CCCn1c(=O)n(C)c3ccccc31)c1ccc(Cl)cc12 (centres unmarked) | 94.6
* O=C(O)c1[nH]n(-c2ccc(Cl)cc2)c(=O)c1CCO | 101
* CC(C)c1ccc(CN2CCC(Cc3ccccc3)CC2)cc1 | 99.1
